The measurements presented in this section are drawn from patent US20260078185A1.

Examples of binders with documented Kd follow.
target-entity: Human VISTA recombinant protein (Sino Biological Inc., Cat. #13482-H08H), biotinylated (UniProt Q9H7M9 33-194, biotinylated using EZ-LINK NHS-PEG4 biotin)
Sequence (Q9H7M9 33-194): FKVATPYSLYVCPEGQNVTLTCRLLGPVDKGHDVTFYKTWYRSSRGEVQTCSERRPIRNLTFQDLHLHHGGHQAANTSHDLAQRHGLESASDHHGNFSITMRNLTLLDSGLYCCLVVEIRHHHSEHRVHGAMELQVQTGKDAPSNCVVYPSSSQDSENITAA
measurement-notes: Octet BLI
I only need the number, in nM, no unit after it.

Sample answers from the record:
binder="9F9 humanized anti-VISTA antibody VH9/VL9 (antibody, V domains shown) VH: QVQFVQSGAEVKKPGSSVKVSCKASGYTFSGYWMQWVKQAPGQGLEWIGAIYPGDGDTRYSQKFKGKVTLTADESTSTAYMELSSLRSEDTAVYYCARRDYGAWFAYWGQGTLVTVSS VL: DIKVTQSPSSLSASVGDRVTITCKASQDINSYLSWYQQKPGKAPKTLIYRANRLVDGVPSRFSGSGSGQDYTFTISSLQPEDIATYYCLQYDEFPYTFGQGTKVEIK" unit_of_measure=nM data_value=26.6
binder="9F9 parental anti-VISTA antibody (VH0/VL0) (antibody, V domains shown) VH: QVQFQQSGAELARPGASVKLSCKASGYTFTGYWMQWVKQRPGQGLEWIGAIYPGDGDTRYSQKFKGKVTLTADKSSSTAYMQLSSLASEDSAVYYCARRDYGAWFAYWGQGTLVTVSA VL: DIKVTQSPSSMYASLGERVTITCKASQDINSYLSWFQQKPGKSPKTLIYRANRLVDGVPSRFSGSGSGQDYSLTISSLDYEDMGIYYCLQYDEFPYTFGGGTKLEIK" unit_of_measure=nM data_value=9.45
binder="9F9 humanized anti-VISTA antibody VH14/VL15 (antibody, V domains shown) VH: QVQLVQSGAEVMKPGASVKISCKASGYTFTGYWMQWVRQRPGQGLEWIGAIYPGDGDTRYSQKFKGKATMTADTSISTAYMELSRLRSDDTAVYYCARRDYGAWFAYWGAGTTVTVSS VL: DIVMTQSPSSLSASVGERVTITCKASQDINSYLSWFQQKPGKAPKTLIYRANRLVDGVPSRFSGSGSGTDFTFTISSVQPEDLAIYYCLQYDEFPYTFGGGTKLEIK" unit_of_measure=nM data_value=20.3

Could you now consider this next binder?
// field: Kd; key: 9F9 humanized anti-VISTA antibody VH15/VL15 (antibody, V domains shown) VH: QVQLVQSGAEVMKPGASVKLSCKASGYTFTGYWMQWVKQRPGQGLEWIGAIYPGDGDTRYSQKFKGKATMTADTSISTAYMELSRLRSDDSAVYYCARRDYGAWFAYWGAGTTVTVSS VL: DIVMTQSPSSLSASVGERVTITCKASQDINSYLSWFQQKPGKAPKTLIYRANRLVDGVPSRFSGSGSGTDFTFTISSVQPEDLAIYYCLQYDEFPYTFGGGTKLEIK ; value = 24.4
